experiment: cAMP Responsive Elements (CRE) small molecule agonists, cell-based qHTS assay: qHTS cell viability counter screen (AID 2060914); conditions: CRE-bla HEK293T viability, CellTiter-Glo luminescence, 5 h; series mostly up to 92.4 µM;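 further: viability read after 3 h of compound exposure; nearly all actives have a fitted effect of over 50% in size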
Results filed as inconclusive are left out. Calls of active or inactive are those of the source. The call rests on the fitted dose curve; in most records, active means well fitted cell-killing curve with a large enough effect in the repeat runs; inconclusive means weak or mixed curves, or effect the other way; inactive means flat fitted curve, though single readings scatter.
Outcome codes: active, inactive

>>> class_assignment("BrCC(Br)c1ccccc1 (stereo not given)")
"inactive"
>>> class_assignment("CC[C@H](O)C(C[C@H](C)N(C)C)(c1ccccc1)c1ccccc1")
"inactive"
>>> class_assignment("NCCCNCCCN")
"inactive"
>>> class_assignment("N#CC1(N=NC2(C#N)CCCCC2)CCCCC1")
"inactive"
>>> class_assignment("Cc1cnc[nH]1")
"inactive"
>>> class_assignment("C=CC(C)(CCC=C(C)C)OC(=O)c1ccccc1N (stereo not given)")
"inactive"
>>> class_assignment("CCS(=O)(=O)CCSP(=O)(OC)OC")
"inactive"
>>> class_assignment("ClCCN1CCOCC1")
"inactive"
>>> class_assignment("COC1=CC(=O)O[C@@H](/C=C/c2ccccc2)C1")
"inactive"
>>> class_assignment("CC(=O)c1cc2c(cc1C)C(C)(C)C(C)CC2(C)C (stereo not given)")
"inactive"
>>> class_assignment("c1ccc2c(c1)-c1cccc3cccc-2c13")
"inactive"
>>> class_assignment("ClCOCCl")
"inactive"
>>> class_assignment("C=CC#N")
"inactive"
>>> class_assignment("c1ccc(OCC2CO2)cc1 (stereo not given)")
"inactive"
>>> class_assignment("O=C(CCl)c1ccccc1")
"inactive"
>>> class_assignment("C=C(C)C(=O)[O][Sn]([CH2]CCC)([CH2]CCC)[CH2]CCC")
"active"
>>> class_assignment("NC(=O)c1cc([N+](=O)[O-])cc([N+](=O)[O-])c1")
"inactive"
>>> class_assignment("CON(C)C(=O)Nc1ccc(Cl)c(Cl)c1")
"inactive"
>>> class_assignment("Cn1[nH]nnc1=S")
"inactive"
>>> class_assignment("CC(=O)CC(c1ccc(Cl)cc1)c1c(O)c2ccccc2oc1=O (stereo not given)")
"inactive"
>>> class_assignment("CC(=O)C(C)(C)C")
"inactive"
>>> class_assignment("C[C@@H]1CC[C@H]2[C@@H](C)C(=O)O[C@@H]3O[C@@]4(C)CC[C@@H]1[C@]32OO4")
"inactive"
>>> class_assignment("CCCCCCCCCCCCCCCCCCn1cc[n+](C)c1")
"active"
>>> class_assignment("Cc1ccc2ccccc2c1")
"inactive"
>>> class_assignment("CC(C)Nc1nc(Cl)nc(NC(C)C)n1")
"inactive"
>>> class_assignment("COP(=O)(OC)SCn1c(=O)oc2cc(Cl)cnc21")
"inactive"
>>> class_assignment("CN(C)CCC#N")
"inactive"
>>> class_assignment("CCc1cccc(C)c1N(C(=O)CCl)C(C)COC (stereo not given)")
"inactive"
>>> class_assignment("C#CC(O)(C=CCl)CC (stereo not given)")
"inactive"
>>> class_assignment("CC(C)(C)NC[C@H](O)c1ccc(O)cc1Cl")
"inactive"

The measured values listed here are drawn from PubChem BioAssay (Tox21).
